system: Solanum nigrum (SOLNI); assay: Pre-emergence herbicidal evaluation, black nightshade; type: in vivo; details: dose 0.013 kg/ha
// reported SOLNI rating for each item listed

Worked cases, SOLNI rating given:
Cc1cc(OCC=C(Cl)Cl)nc(Oc2cc(C(F)(F)F)nn2C)c1 | 5 (5 - Definite injury)
Cc1cc(OCC(F)(F)C(F)(F)C(F)(F)C(F)F)nc(Oc2cc(C(F)(F)F)nn2C)c1 | 1 (1 - Trace effect)
COc1cc(OCC(F)(F)C(F)F)nc(Oc2cc(C(F)(F)F)nn2C)c1 | 6 (6 - Herbicidal effect)
Cc1cc(OCC(F)(F)C(F)F)nc(Oc2cc(C(F)(F)F)nn2C)c1 | 4 (4 - Injury)
Cc1cc(OC/C=C/C(F)(F)F)nc(Oc2cc(C(F)(F)F)nn2C)c1 | 4 (4 - Injury)
Cc1cc(OCC(F)(F)C(F)(F)F)nc(Oc2cc(C(F)(F)F)nn2C)c1 | 0 (0 - No effect)
CC(Cl)=CCOc1cc(C)cc(Oc2cc(C(F)(F)F)nn2C)n1 | 5 (5 - Definite injury)

Now for the molecule whose SOLNI rating we want.
Query SOLNI rating on Solanum nigrum (SOLNI) for `Cc1cc(OC=CCC(F)(F)F)nc(Oc2cc(C(F)(F)F)nn2C)c1`
0 (0 - No effect)

---

test system: Abutilon theophrasti (ABUTH); experiment: Pre-emergence herbicidal evaluation, velvetleaf; type: in vivo; details: dose 0.013 kg/ha
experimentalEndpoint: ABUTH rating

Worked cases, ABUTH rating given:
Cc1cc(OCC(F)(F)C(F)(F)C(F)(F)C(F)F)nc(Oc2cc(C(F)(F)F)nn2C)c1 | 0 (0 - No effect)
Cc1cc(OCC(F)(F)C(F)F)nc(Oc2cc(C(F)(F)F)nn2C)c1 | 1 (1 - Trace effect)
COc1cc(OCC(F)(F)C(F)F)nc(Oc2cc(C(F)(F)F)nn2C)c1 | 3 (3 - Moderate effect)

State the recorded ABUTH rating for this entry: `Cc1cc(OCC=C(Cl)Cl)nc(Oc2cc(C(F)(F)F)nn2C)c1`
2 (2 - Slight effect)

State the recorded ABUTH rating for this entry: `Cc1cc(OC/C=C/C(F)(F)F)nc(Oc2cc(C(F)(F)F)nn2C)c1`
7 (7 - Good herbicidal effect)

State the recorded ABUTH rating for this entry: `CC(Cl)=CCOc1cc(C)cc(Oc2cc(C(F)(F)F)nn2C)n1`
3 (3 - Moderate effect)

State the recorded ABUTH rating for this entry: `Cc1cc(OC=CCC(F)(F)F)nc(Oc2cc(C(F)(F)F)nn2C)c1`
1 (1 - Trace effect)

---

test system: Galium aparine (GALAP); test: Pre-emergence herbicidal evaluation, cleaver; format: in vivo; details: dose 0.013 kg/ha
// reported GALAP rating for each item listed

Worked cases, GALAP rating given:
Cc1cc(OCC(F)(F)C(F)(F)F)nc(Oc2cc(C(F)(F)F)nn2C)c1 | 0 (0 - No effect)
Cc1cc(OC/C=C/C(F)(F)F)nc(Oc2cc(C(F)(F)F)nn2C)c1 | 1 (1 - Trace effect)
COc1cc(OCC(F)(F)C(F)F)nc(Oc2cc(C(F)(F)F)nn2C)c1 | 1 (1 - Trace effect)
Cc1cc(OC=CCC(F)(F)F)nc(Oc2cc(C(F)(F)F)nn2C)c1 | 0 (0 - No effect)
Cc1cc(OCC(F)(F)C(F)F)nc(Oc2cc(C(F)(F)F)nn2C)c1 | 1 (1 - Trace effect)

State the recorded GALAP rating for this entry: `Cc1cc(OCC(F)(F)C(F)(F)C(F)(F)C(F)F)nc(Oc2cc(C(F)(F)F)nn2C)c1`
1 (1 - Trace effect)

State the recorded GALAP rating for this entry: `Cc1cc(OCC=C(Cl)Cl)nc(Oc2cc(C(F)(F)F)nn2C)c1`
1 (1 - Trace effect)

State the recorded GALAP rating for this entry: `CC(Cl)=CCOc1cc(C)cc(Oc2cc(C(F)(F)F)nn2C)n1`
1 (1 - Trace effect)
